Tested on: johnsongrass (Sorghum halepense, SORHA)
Test: Greenhouse herbicide screen, pre-emerge application, phytotoxicity rating
Type: in vivo
Details: PRE emergent, 63 g ai/ha, 14 days after application, rating scale 0-100
endpoint: phytotoxicity rating SORHA

Lookup: Give its phytotoxicity rating SORHA value. Item: CC(=O)OC(=NN(C)C)c1cc(-n2c(=O)cc(C(F)(F)F)n(C)c2=O)ccc1Cl
Found: 60

Lookup: So what does the record say about phytotoxicity rating SORHA for CC(=NN=C(OC(=O)C(Cl)Cl)c1cc(-n2c(=O)cc(C(F)(F)F)n(C)c2=O)c(F)cc1Cl)C(C)(C)C ?
Found: 85

Lookup: What does the data say about its phytotoxicity rating SORHA? Entry: CC(=O)OC(=NN1C(C)CCCC1C)c1cc(-n2c(=O)cc(C(F)(F)F)n(C)c2=O)c(F)cc1Cl (stereo not drawn)
Found: 65

Origin of values: patent US6770597B2
